assayed_target: T1, human recombinant melanocortin-4 receptor (human, UniProt P32245 1-332)
T1 construct: whole, on cells; cAMP assays used the whole cells; also called hMC4-R; MC4-R
T1 sequence (P32245 whole entry): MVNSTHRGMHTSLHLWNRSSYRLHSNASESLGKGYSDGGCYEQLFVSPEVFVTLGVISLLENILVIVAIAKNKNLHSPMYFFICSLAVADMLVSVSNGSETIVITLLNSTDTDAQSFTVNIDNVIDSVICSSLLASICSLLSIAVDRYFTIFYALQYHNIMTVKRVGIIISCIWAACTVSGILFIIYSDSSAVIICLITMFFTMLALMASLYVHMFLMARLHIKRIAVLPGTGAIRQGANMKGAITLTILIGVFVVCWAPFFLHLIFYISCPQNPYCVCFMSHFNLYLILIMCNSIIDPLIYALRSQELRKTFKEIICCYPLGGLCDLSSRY
test_description: competitive inhibition of [I125]-NDP-α-MSH, hMC4-R HEK-293 membranes
Numbered stars: 1 amine (or outer) side, 2 acyl side, 3 side chain; on linkers, the order of the positions; unused ones are H or OH. Bridge positions count the residues as written; N and C are the ends. Square brackets hold non-standard residues; d marks the D form. Thr(Bzl) = O-benzyl-threonine, C[C@@H](OCc1ccccc1)[C@H](N[*:1])C(=O)[*:2]; Met(O2) = CS(=O)(=O)CC[C@H](N)C(=O)O; Aad = N[C@@H](CCCC(=O)O)C(=O)O; Orn = NCCC[C@H](N)C(=O)O; Dab = NCC[C@H](N)C(=O)O
measurement_label: pKi
// field semantics: pKi = negative decimal log of concentration (mol/L)

binder	measurement_label	observed_result
QDXFRWK (HELM PEPTIDE1{[ac].Q.D.[Dab].[dF].R.W.K.[am]}$PEPTIDE1,PEPTIDE1,3:R3-8:R3$$$V2.0; SMILES CC(=O)N[C@@H](CCC(N)=O)C(=O)N[C@H]1CC(=O)NCCCC[C@@H](C(N)=O)NC(=O)[C@H](Cc2c[nH]c3ccccc23)NC(=O)[C@H](CCCNC(=N)N)NC(=O)[C@@H](Cc2ccccc2)NC(=O)[C@H](CCN)NC1=O, also called peptide No. 142) [Ac-Gln-cyclo(Asp-Dab-D-Phe-Arg-Trp-Lys)-NH2]	pKi	7.82
Ac-RD[Thr(Bzl)][dF]RWK-NH2 (lactam 2-7, also called peptide No. 14) [Ac-Arg-cyclo(Asp-Thr(Bzl)-D-Phe-Arg-Trp-Lys)-NH2]	pKi	9.00
Ac-RD[Met(O2)][dF]RWK-NH2 (lactam 2-7, also called peptide No. 77) [Ac-Arg-cyclo(Asp-Met-(O2)-D-Phe-Arg-Trp-Lys)-NH2]	pKi	8.15
Ac-R[Aad]N[dF]RW[Dab]-NH2 (lactam 2-7, also called peptide No. 160) [Ac-Arg-cyclo(hGlu-Asn-D-Phe-Arg-Trp-Dab)-NH2]	pKi	8.10

Turning now to a further binder:
Query: Provide only the value of recorded pKi for Ac-REN[dF]RW[Orn]-OH (lactam 2-7, also called peptide No. 91) [Ac-Arg-cyclo(Glu-Asn-D-Phe-Arg-Trp-Orn)-OH]
Result: 6.78

These measurements were taken from patent US20120178701A1.
